Test system: 252836-082-R-J2-PDC tumor spheroids, viability
Assay text: Anticancer human tumor 252836-082-R-J2-PDC patient-derived head and neck squamous cell carcinoma cell line growth inhibition [PI3K]
Assay conditions: second compound 3.16 µM; first compound 0.00316 µM; hits give low values; spheroids with HUVEC and MSC
Attribute measured: viability, T/C

Challenge: Name the reported viability, T/C value associated with the molecule CC(=O)c1c(C)c2cnc(Nc3ccc(N4CCNCC4)cn3)nc2n(C2CCCC2)c1=O + Cc1nc(NC(=O)N2CCCC2C(N)=O)sc1-c1ccnc(C(C)(C)C(F)(F)F)c1
Response given: 39.2%

Challenge: Name the reported viability, T/C value associated with the molecule Cn1ncnc1[C@H]1c2n[nH]c(=O)c3cc(F)cc(c23)N[C@@H]1c1ccc(F)cc1 + Cc1nc(NC(=O)N2CCCC2C(N)=O)sc1-c1ccnc(C(C)(C)C(F)(F)F)c1
Response given: 39%

Challenge: Name the reported viability, T/C value associated with the molecule CCN1CCN(Cc2ccc(Nc3ncc(F)c(-c4cc(F)c5nc(C)n(C(C)C)c5c4)n3)nc2)CC1 + Cc1nc(NC(=O)N2CCCC2C(N)=O)sc1-c1ccnc(C(C)(C)C(F)(F)F)c1
Response given: 49.1%

Challenge: Name the reported viability, T/C value associated with the molecule CC(=O)c1c(C)c2cnc(Nc3ccc(N4CCNCC4)cn3)nc2n(C2CCCC2)c1=O + CC(Nc1ncnc2nc[nH]c12)c1cc2cccc(Cl)c2c(=O)n1-c1ccccc1
Response given: 66.1%

Challenge: Name the reported viability, T/C value associated with the molecule CCN1CCN(Cc2ccc(Nc3ncc(F)c(-c4cc(F)c5nc(C)n(C(C)C)c5c4)n3)nc2)CC1 + CC(Nc1ncnc2nc[nH]c12)c1cc2cccc(Cl)c2c(=O)n1-c1ccccc1
Response given: 80%

Challenge: Name the reported viability, T/C value associated with the molecule Cn1ncnc1[C@H]1c2n[nH]c(=O)c3cc(F)cc(c23)N[C@@H]1c1ccc(F)cc1 + CC(Nc1ncnc2nc[nH]c12)c1cc2cccc(Cl)c2c(=O)n1-c1ccccc1
Response given: 82.8%

Challenge: Name the reported viability, T/C value associated with the molecule CC(C)n1nc(-c2ccc3oc(N)nc3c2)c2c(N)ncnc21 + Cc1nc(NC(=O)N2CCCC2C(N)=O)sc1-c1ccnc(C(C)(C)C(F)(F)F)c1
Response given: 47.5%

Challenge: Name the reported viability, T/C value associated with the molecule CC(C)n1nc(-c2ccc3oc(N)nc3c2)c2c(N)ncnc21 + CC(Nc1ncnc2nc[nH]c12)c1cc2cccc(Cl)c2c(=O)n1-c1ccccc1
Response given: 78.5%

----------
Task for the reader: assign each of the following compounds its reported viability, T/C.
Tested on: 252836-082-R-J2-PDC tumor spheroids, viability
Assay text: Anticancer human tumor 252836-082-R-J2-PDC cell line growth inhibition [PI3K];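 also: spheroids exposed to agents for seven days before readout; percent of vehicle DMSO control viability so 100% = untreated growth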
Assay conditions: second compound 0.0316 µM; first compound 0.0316 µM; hits give low values; spheroids with HUVEC and MSC
Kindly answer with a numeric value in %, unit omitted.

Challenge: Name the reported viability, T/C value associated with the compound CCCS(=O)(=O)Nc1ccc(F)c(C(=O)c2c[nH]c3ncc(-c4ccc(Cl)cc4)cc23)c1F + CC(Nc1ccc2c(c1)OCCn1cc(N3C(=O)OCC3C(F)F)nc1-2)C(N)=O
Response given: 76.3

Challenge: Name the reported viability, T/C value associated with the compound CNC(=O)c1ccc(N2C(=S)N(c3ccc(C#N)c(C(F)(F)F)c3)C(=O)C2(C)C)cc1F + CC(Nc1ncnc2nc[nH]c12)c1cc2cccc(Cl)c2c(=O)n1-c1ccccc1
Response given: 103

Challenge: Name the reported viability, T/C value associated with the compound CC(C)n1nc(-c2ccc3oc(N)nc3c2)c2c(N)ncnc21 + CC(Nc1ccc2c(c1)OCCn1cc(N3C(=O)OCC3C(F)F)nc1-2)C(N)=O
Response given: 44.8

Challenge: Name the reported viability, T/C value associated with the compound CCN1CCN(Cc2ccc(Nc3ncc(F)c(-c4cc(F)c5nc(C)n(C(C)C)c5c4)n3)nc2)CC1 + CC(Nc1ncnc2nc[nH]c12)c1cc2cccc(Cl)c2c(=O)n1-c1ccccc1
Response given: 96.9

Challenge: Name the reported viability, T/C value associated with the compound CCN1CCN(Cc2ccc(Nc3ncc(F)c(-c4cc(F)c5nc(C)n(C(C)C)c5c4)n3)nc2)CC1 + COc1c(OCCCN2CCOCC2)ccc2c3n(c(=NC(=O)c4cnc(N)nc4)nc12)CCN3
Response given: 55.4

Challenge: Name the reported viability, T/C value associated with the compound CC1(C)CCC(CN2CCN(c3ccc(C(=O)NS(=O)(=O)c4ccc(NCC5CCOCC5)c([N+](=O)[O-])c4)c(Oc4cnc5[nH]ccc5c4)c3)CC2)=C(c2ccc(Cl)cc2)C1 + CC(Nc1ncnc2nc[nH]c12)c1cc2cccc(Cl)c2c(=O)n1-c1ccccc1
Response given: 96.7

Challenge: Name the reported viability, T/C value associated with the compound C=CC(=O)N1CCN(c2nc(=O)n(-c3c(C)ccnc3C(C)C)c3nc(-c4c(O)cccc4F)c(F)cc23)C(C)C1 (stereo unspecified) + Cc1nc(NC(=O)N2CCCC2C(N)=O)sc1-c1ccnc(C(C)(C)C(F)(F)F)c1
Response given: 101

Challenge: Name the reported viability, T/C value associated with the compound Cn1nccc1Nc1nccc(-c2ccn(C(CO)c3ccc(Cl)c(F)c3)c(=O)c2)n1 (stereo unspecified) + COc1c(OCCCN2CCOCC2)ccc2c3n(c(=NC(=O)c4cnc(N)nc4)nc12)CCN3
Response given: 53

Challenge: Name the reported viability, T/C value associated with the compound CC(C)n1nc(-c2ccc3oc(N)nc3c2)c2c(N)ncnc21 + COc1c(OCCCN2CCOCC2)ccc2c3n(c(=NC(=O)c4cnc(N)nc4)nc12)CCN3
Response given: 31.4

Challenge: Name the reported viability, T/C value associated with the compound CC1(C)CCC(Nc2ncc(C(F)(F)F)c(-c3c[nH]c4c(P(C)(C)=O)c(C#N)ccc34)n2)CN1 (stereo unspecified) + CC(Nc1ccc2c(c1)OCCn1cc(N3C(=O)OCC3C(F)F)nc1-2)C(N)=O
Response given: 26.8

Challenge: Name the reported viability, T/C value associated with the compound Cn1nccc1Nc1nccc(-c2ccn(C(CO)c3ccc(Cl)c(F)c3)c(=O)c2)n1 (stereo unspecified) + CC(Nc1ncnc2nc[nH]c12)c1cc2cccc(Cl)c2c(=O)n1-c1ccccc1
Response given: 83.3

----------
System: 252836-082-R-J2-PDC tumor spheroids, viability
Assay text: Anticancer human tumor 252836-082-R-J2-PDC cell line growth inhibition [PI3K];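 also: spheroids exposed to agents for seven days before readout; percent of vehicle DMSO control viability so 100% = untreated growth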
Assay conditions: second compound 0.0316 µM; first compound 0.0316 µM; hits give low values; spheroids with HUVEC and MSC
Field: label. Allowed values: Satisfied (viability, T/C < 90%) or Not satisfied (viability, T/C >= 90%).

Challenge: Strictly below 90% in viability, T/C? CC(Cn1ccc(-c2ccc(C#N)c(Cl)c2)n1)NC(=O)c1cc(C(C)O)[nH]n1 (stereo unspecified) + Cc1nc(NC(=O)N2CCCC2C(N)=O)sc1-c1ccnc(C(C)(C)C(F)(F)F)c1
Response given: Satisfied

Challenge: Strictly below 90% in viability, T/C? C#Cc1c(F)ccc2cc(O)cc(-c3ncc4c(N5CC6CCC(C5)N6)nc(OCC56CCCN5CC(F)C6)nc4c3F)c12 (stereo unspecified) + Cc1nc(NC(=O)N2CCCC2C(N)=O)sc1-c1ccnc(C(C)(C)C(F)(F)F)c1
Response given: Not satisfied

Challenge: Strictly below 90% in viability, T/C? CCCS(=O)(=O)Nc1ccc(F)c(C(=O)c2c[nH]c3ncc(-c4ccc(Cl)cc4)cc23)c1F + COc1c(OCCCN2CCOCC2)ccc2c3n(c(=NC(=O)c4cnc(N)nc4)nc12)CCN3
Response given: Satisfied

Challenge: Strictly below 90% in viability, T/C? CCCS(=O)(=O)Nc1ccc(F)c(C(=O)c2c[nH]c3ncc(-c4ccc(Cl)cc4)cc23)c1F + Cc1nc(NC(=O)N2CCCC2C(N)=O)sc1-c1ccnc(C(C)(C)C(F)(F)F)c1
Response given: Not satisfied

Challenge: Strictly below 90% in viability, T/C? CC(=O)c1c(C)c2cnc(Nc3ccc(N4CCNCC4)cn3)nc2n(C2CCCC2)c1=O + COc1c(OCCCN2CCOCC2)ccc2c3n(c(=NC(=O)c4cnc(N)nc4)nc12)CCN3
Response given: Satisfied

Challenge: Strictly below 90% in viability, T/C? CC(Cn1ccc(-c2ccc(C#N)c(Cl)c2)n1)NC(=O)c1cc(C(C)O)[nH]n1 (stereo unspecified) + CC(Nc1ncnc2nc[nH]c12)c1cc2cccc(Cl)c2c(=O)n1-c1ccccc1
Response given: Not satisfied

Challenge: Strictly below 90% in viability, T/C? C[C@@H](NC(=O)c1ncnc(N)c1Cl)c1ncc(C(=O)Nc2cc(C(F)(F)F)c(Cl)cn2)s1 + Cc1nc(NC(=O)N2CCCC2C(N)=O)sc1-c1ccnc(C(C)(C)C(F)(F)F)c1
Response given: Not satisfied

Challenge: Strictly below 90% in viability, T/C? CC(C)n1nc(-c2ccc3oc(N)nc3c2)c2c(N)ncnc21 + CC(Nc1ncnc2nc[nH]c12)c1cc2cccc(Cl)c2c(=O)n1-c1ccccc1
Response given: Satisfied

Challenge: Strictly below 90% in viability, T/C? C=CC(=O)N1CCN(c2nc(=O)n(-c3c(C)ccnc3C(C)C)c3nc(-c4c(O)cccc4F)c(F)cc23)C(C)C1 (stereo unspecified) + CC(Nc1ncnc2nc[nH]c12)c1cc2cccc(Cl)c2c(=O)n1-c1ccccc1
Response given: Not satisfied

The origin of these recorded values is PubChem BioAssay AID1963985.
